# test.description: Cytotoxicity against HEK293 cells assessed as inhibition of cell growth incubated for 48 hrs by Cell-Titer Glo reagent based analysis
# Assay type: toxicity
# test.settings: human
parameter: IC50 at 48 h

Incoming: Consider the molecule CN1C(=O)[C@@H]2NC(=O)[C@@H]3NC(=O)[C@@H](c4ccc(O)cc4)NC(=O)[C@H](NC(=O)C(N)c4ccc(O)cc4)Cc4c[nH]c5cc(ccc45)-c4cc3cc(c4O)Oc3ccc(cc3)C[C@H]1C(=O)N[C@@H](C(=O)NCCCN)c1ccc(O)c(c1)Oc1ccc2cc1 (some centres not stated) and give its measured IC50 at 48 h.
Outgoing: > 256 µg/mL

Incoming: Quick one: IC50 at 48 h for CCCCCCNC(C(=O)N[C@@H]1Cc2c[nH]c3cc(ccc23)-c2cc3cc(c2O)Oc2ccc(cc2)C[C@H]2C(=O)N[C@@H](C(=O)O)c4ccc(O)c(c4)Oc4ccc(cc4)[C@@H](NC(=O)[C@@H]3NC(=O)[C@@H](c3ccc(O)cc3)NC1=O)C(=O)N2C)c1ccc(O)cc1 (some centres not stated) ?
Outgoing: > 256 µg/mL

###

# Tested on: Mycolicibacterium fortuitum
# test.description: Antimycobacterial activity against Mycobacterium fortuitum ATCC 6891 assessed as inhibition of bacterial growth measured after 2 days by resazurin dye based analysis
# Assay type: functional
# test.settings: ATCC 6891, 48 h, time 2 day
Kindly supply the reported MIC values for the records listed here.

Incoming: Quick one: MIC for CN1C(=O)[C@@H]2NC(=O)[C@@H]3NC(=O)[C@@H](c4ccc(O)cc4)NC(=O)[C@H](NC(=O)C(N)c4ccc(O)cc4)Cc4c[nH]c5cc(ccc45)-c4cc3cc(c4O)Oc3ccc(cc3)C[C@H]1C(=O)N[C@@H](C(=O)O)c1ccc(O)c(c1)Oc1ccc2cc1 (some centres undefined) ?
Outgoing: 8 µg/mL

Incoming: Please look up its MIC: CN1C(=O)[C@@H](c2cc(Cl)c(O)c(Cl)c2)NC(=O)[C@@H]2NC(=O)[C@@H](c3cc(Cl)c(O)c(Cl)c3)NC(=O)[C@H](NC(=O)C(=O)c3cc(Cl)c(O)c(Cl)c3)Cc3c[nH]c4cc(ccc34)-c3cc2cc(c3O)Oc2ccc(cc2)C[C@H]1C(=O)N[C@@H](C(=O)O)c1ccc(O)cc1
Outgoing: > 128 µg/mL

Incoming: For the molecule shown here, CN(C)CCCNC(=O)[C@@H]1NC(=O)[C@@H]2Cc3ccc(cc3)Oc3cc4cc(c3O)-c3ccc5c(c[nH]c5c3)C[C@@H](NC(=O)C(NC(=O)CCCCCN)c3ccc(O)cc3)C(=O)N[C@H](c3ccc(O)cc3)C(=O)N[C@H]4C(=O)N[C@@H](C(=O)N2C)c2ccc(cc2)Oc2cc1ccc2O (some centres undefined) , give the reported MIC.
Outgoing: 2 µg/mL

Incoming: Suppose we examine the molecule NNC(=O)c1ccncc1 ; what MIC value has been reported?
Outgoing: 4 µg/mL

###

# Test system: Staphylococcus aureus
# test.description: Antibacterial activity against Staphylococcus aureus ATCC 33591 assessed as reduction in bacterial growth by Mueller-Hinton broth based assay
# Format: functional
parameter: MIC (µg/mL)
Write it as a number; the unit µg/mL goes unstated.

Incoming: Look up MIC with Staphylococcus aureus for this compound: CN1C(=O)[C@@H]2NC(=O)[C@@H]3NC(=O)[C@@H](c4ccc(O)cc4)NC(=O)[C@H](NC(=O)C(Nc4cc(C(F)(F)F)cc(C(F)(F)F)c4)c4ccc(O)cc4)Cc4c[nH]c5cc(ccc45)-c4cc3cc(c4O)Oc3ccc(cc3)C[C@H]1C(=O)N[C@@H](C(=O)O)c1ccc(O)c(c1)Oc1ccc2cc1 (some centres undefined)
Outgoing: 8

Incoming: Lab request: please report MIC under test system Staphylococcus aureus for CN1C(=O)[C@@H]2NC(=O)[C@@H]3NC(=O)[C@@H](c4ccc(O)cc4)NC(=O)[C@H](NC(=O)C(NCCO)c4ccc(O)cc4)Cc4c[nH]c5cc(ccc45)-c4cc3cc(c4O)Oc3ccc(cc3)C[C@H]1C(=O)N[C@@H](C(=O)OCCO)c1ccc(O)c(c1)Oc1ccc2cc1 (some centres undefined)
Outgoing: 32

Incoming: Give MIC (Staphylococcus aureus) of the following compound: CN1C(=O)[C@@H]2NC(=O)[C@@H]3NC(=O)[C@@H](c4ccc(O)cc4)NC(=O)[C@H](NC(=O)C(NC(=O)CCCCCN)c4ccc(O)cc4)Cc4c[nH]c5cc(ccc45)-c4cc3cc(c4O)Oc3ccc(cc3)C[C@H]1C(=O)N[C@@H](C(=O)O)c1ccc(O)c(c1)Oc1ccc2cc1 (some centres undefined)
Outgoing: 8

Incoming: Quick check: MIC on Staphylococcus aureus, item CN1C(=O)[C@@H]2NC(=O)[C@@H]3NC(=O)[C@@H](c4ccc(O)cc4)NC(=O)[C@H](NC(=O)C(Nc4cccc(F)c4F)c4ccc(O)cc4)Cc4c[nH]c5cc(ccc45)-c4cc3cc(c4O)Oc3ccc(cc3)C[C@H]1C(=O)N[C@@H](C(=O)O)c1ccc(O)c(c1)Oc1ccc2cc1 (some centres undefined) ?
Outgoing: 16

Incoming: Give Staphylococcus aureus MIC for CN1C(=O)[C@@H]2NC(=O)[C@@H]3NC(=O)[C@@H](c4ccc(O)cc4)NC(=O)[C@H](NC(=O)C(Nc4ccc(B(O)O)cc4)c4ccc(O)cc4)Cc4c[nH]c5cc(ccc45)-c4cc3cc(c4O)Oc3ccc(cc3)C[C@H]1C(=O)N[C@@H](C(=O)O)c1ccc(O)c(c1)Oc1ccc2cc1 (some centres undefined)
Outgoing: 8

Incoming: Query for Staphylococcus aureus: what MIC does the record show for CN1C(=O)[C@@H]2NC(=O)[C@@H]3NC(=O)[C@@H](c4ccc(O)cc4)NC(=O)[C@H](NC(=O)C(Nc4ccc(O)c(O)c4O)c4ccc(O)cc4)Cc4c[nH]c5cc(ccc45)-c4cc3cc(c4O)Oc3ccc(cc3)C[C@H]1C(=O)N[C@@H](C(=O)O)c1ccc(O)c(c1)Oc1ccc2cc1 (some centres undefined) ?
Outgoing: 16

Incoming: // lookup MIC | system=Staphylococcus aureus | key= CN1C(=O)[C@@H]2NC(=O)[C@@H]3NC(=O)[C@@H](c4ccc(O)cc4)NC(=O)[C@H](NC(=O)C(Nc4ccsc4)c4ccc(O)cc4)Cc4c[nH]c5cc(ccc45)-c4cc3cc(c4O)Oc3ccc(cc3)C[C@H]1C(=O)N[C@@H](C(=O)O)c1ccc(O)c(c1)Oc1ccc2cc1 (some centres undefined)
Outgoing: 4

Incoming: Form: Entry = CN1C(=O)[C@@H]2NC(=O)[C@@H]3NC(=O)[C@@H](c4ccc(O)cc4)NC(=O)[C@H](NC(=O)C(Nc4ccc(Br)cc4)c4ccc(O)cc4)Cc4c[nH]c5cc(ccc45)-c4cc3cc(c4O)Oc3ccc(cc3)C[C@H]1C(=O)N[C@@H](C(=O)O)c1ccc(O)c(c1)Oc1ccc2cc1 (some centres undefined) | System = Staphylococcus aureus | MIC = ____
Outgoing: 4

Data provenance: ChEMBL document CHEMBL5331111
